Origin of values: patent US20260125382A1

MEASUREMENT TARGET: CDK2 (Homo sapiens, UniProt P24941)
Construct: endogenous in cells; host or cells: MDA-MB-231
TEST NAME: CDK protein degradation activity (Western blotting), CDK2
Assay type: cell-based
RUN PARAMETERS: MDA-MB-231 cells, 10 μM, 16 hours, Western blot
Please respond with reported Enzyme degradation CDK2 (% remaining) @ 10 μM for every item in the list.
Report only the number, with the unit % understood.

Ask: Need Enzyme degradation CDK2 (% remaining) @ 10 μM of O=C1CCN(c2coc3cc(C(=O)NC[C@H]4CC[C@H](CN5CCN(c6ccc(Nc7ncnc8c7ncn8[C@H]7C[C@@H](NC(=O)Cc8ccccc8)C7)cc6)CC5)CC4)ccc23)C(=O)N1 [Compound 199] , thanks.
Result: 50

Ask: Need Enzyme degradation CDK2 (% remaining) @ 10 μM of N#Cc1cccc(C(=O)NC2CC(n3cnc4c(Nc5ccc(N6CCN(CC7CCN(C(=O)C8CCN(c9cc%10c(cc9F)C(=O)N([C@H]9CCC(=O)NC9=O)C%10=O)CC8)CC7)CC6)cc5)ncnc43)C2)n1 (stereo partly shown) [Compound 472] , thanks.
Result: 50

Ask: Need Enzyme degradation CDK2 (% remaining) @ 10 μM of O=C1CC[C@H](N2C(=O)c3ccc(N4CC(C(=O)N5CCN(C6CCN(c7ccc(Nc8ncnc9c8ncn9C8CC(NC(=O)Cc9ccccc9)C8)cc7)CC6)CC5)C4)cc3C2=O)C(=O)N1 (stereo partly shown) [Compound 364] , thanks.
Result: 50

Ask: Need Enzyme degradation CDK2 (% remaining) @ 10 μM of O=C1CC[C@H](N2C(=O)c3cccc(N4CCC(CN5CCN(c6ccc(Nc7ncnc8c7ncn8[C@H]7C[C@@H](NC(=O)c8c(Cl)cccc8Cl)C7)cc6)CC5)CC4)c3C2=O)C(=O)N1 [Compound 167] , thanks.
Result: 30

Ask: Need Enzyme degradation CDK2 (% remaining) @ 10 μM of O=C1CC[C@@H](c2cccc(OCC(=O)N3CC(N4CCC5(CC4)CC(N4CCN(c6ccc(Nc7ncnc8c7ncn8[C@H]7C[C@@H](NC(=O)Cc8ccccc8)C7)cc6)CC4)C5)C3)c2)C(=O)N1 [Compound 274] , thanks.
Result: 20

Ask: Need Enzyme degradation CDK2 (% remaining) @ 10 μM of O=C1CC[C@H](N2C(=O)c3ccc(N4CCC(C(=O)N5CCC(CCN6CCN(c7ccc(Nc8ncnc9c8ncn9C8CC(NC(=O)c9c(Cl)cccc9Cl)C8)cc7)CC6)CC5)CC4)cc3C2=O)C(=O)N1 (stereo partly shown) [Compound 413] , thanks.
Result: 20

Ask: Need Enzyme degradation CDK2 (% remaining) @ 10 μM of Cc1cccc(C(=O)N[C@H]2C[C@@H](n3cnc4c(NC5CCN(CCOC6CCN(C(=O)CNc7ccc8c(c7)C(=O)N(C7CCC(=O)NC7=O)C8=O)CC6)CC5)ncnc43)C2)n1 (stereo partly shown) [Compound 45] , thanks.
Result: 90

Ask: Need Enzyme degradation CDK2 (% remaining) @ 10 μM of Cc1cccc(C(=O)NC2CC(n3cnc4c(NCCCN5CCN(CC6CCN(C(=O)COc7ccc([C@@H]8CCC(=O)NC8=O)cc7)CC6)CC5)ncnc43)C2)n1 (stereo partly shown) [Compound 229] , thanks.
Result: 100

Ask: Need Enzyme degradation CDK2 (% remaining) @ 10 μM of O=C1CC[C@H](N2C(=O)c3cc(F)c(N4CCC(CCN5CCN(c6ccc(Nc7ncnc8c7ncn8C7CC(NC(=O)Cc8ccccc8)C7)cc6)CC5)CC4)cc3C2=O)C(=O)N1 (stereo partly shown) [Compound 323] , thanks.
Result: 40
